Test: recombinant UMI read abundance after kanamycin selection (control-corrected) (log10(CPM+1)); higher = more efficient recombination; extreme values may be limits of the assay; sequences stand for … in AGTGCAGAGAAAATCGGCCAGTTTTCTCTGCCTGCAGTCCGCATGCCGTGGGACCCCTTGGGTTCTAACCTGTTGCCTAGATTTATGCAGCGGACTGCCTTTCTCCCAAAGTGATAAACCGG…AGGTTGGTTTCACT; site = the 11-nt donor;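 further: IS621 bridge recombinase in Escherichia coli cells against a fixed T5 target plasmid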
Here the recorded recombinant UMI read abundance (log10) is given for each entry.
Write the value as a bare number.

Look over these answered cases.
TAGCCCTCATGGACCGGTTTTCCCGGTAATCCGTATTTGGT (site TAGCCATCTAC)	0.00538
GTTGTTCCATGGACCGGTTTTCCCGGTAATCCGTATTTGTT (site GTTGTTCCTAA)	0.42

Note: attention shifts to another entry.
# sequence TGCCGCTCATGGACCGGTTTTCCCGGTAATCCGTATTTGGA (site TGCCGCTCTTC) ; its recombinant UMI read abundance (log10) = 0.324
